- Protocol description: H69AR cell proliferation blockers – human, duplicate replicates, primary screen (AID 580);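 note: 100% = mean luminescence of untreated wells and 0% = no signal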
- Conditions used: H69AR lung tumor cells viability, ATP luminescence, 72 h; at 10 µM; stronger effect = lower value
Reported metric: viability (%)
Write down the numeric answer in % and omit the unit.

COC(=O)C1=C(C)NC(C)=C(C(=O)OC)C1C1CC=CCC1 (stereo unspecified) | 100
CCCCN(CC)CCNC(=O)c1cc2c(C)nc3ccccc3c2o1 | 85.3
CC(Oc1ccccc1)C(=O)NC1CC(C)(C)NC(C)(C)C1 (stereo unspecified) | 94
COc1ccc(NC(=O)c2cc(C3CC3)on2)c(OC)c1 | 91.2
Cn1cccc1Cc1nnc(SCC(=O)NCc2ccc(F)cc2)n1-c1ccc(F)cc1 | 89

Request: Return reported viability; argument: "CCCC(=O)Nc1cc(C)c2c(=O)oc3ccccc3c2n1"
Result: 77.6

Request: // query viability value for entry "CCOc1ccc2nc(N3CCC(C(=O)N4CCN(C5CCCCC5)CC4)CC3)sc2c1"
Result: 95.7

Request: Look up viability: CC(c1ccco1)N(C(=O)c1ccc(S(=O)(=O)N2CCCCC2)cc1)c1ccccn1 (stereo unspecified)
Result: 86

Request: Item under review: "Nc1cccc2c1C(=O)N(c1ccccc1)C2=O" . Reported viability?
Result: 98.8

Request: Fill blank: measured viability of the molecule "COc1ccc(CC(=O)NCc2nnc(SCC(=O)Nc3nccs3)n2-c2ccccc2)cc1" is ____.
Result: 96.6

Request: Which viability is reported for this molecule? "O=P(O)(CCc1ccccc1)CN1CCCCC1"
Result: 95.5

Request: What value of measured viability is listed for "Clc1c(CSc2nc3ccccc3o2)nc2sccn12" ?
Result: 92.9

Request: Item under review: "Cc1c(C(=O)NC2CC2)oc2ccc(S(=O)(=O)N3CCCCCC3)cc12" . Reported viability?
Result: 83

Request: What value of viability has been reported for the following molecule? "CCN(CC)c1ccc(NC(=O)c2nc3nc(C)cc(C(F)F)n3n2)cc1"
Result: 84.4

Request: // viability lookup, key: "CCN1CCN(C(=O)C2CCN(C(=O)c3cc4sccc4n3CC)CC2)CC1"
Result: 83

Request: # query: viability of entry Cc1ccc(N2C(=O)c3oc4ccccc4c(=O)c3C2c2cccc(O)c2)nc1 (stereo unspecified)
Result: 91.8
